target: D-alanine--D-alanine ligase (Enterococcus faecalis (strain ATCC 700802 / V583)); assay: Inhibition of Enterococcus faecalis JH2-2 C-terminal 6His-tagged DdlB expressed in Escherichia coli LMG194 preincubated for 30 mins followed by substrate addition and measured after 20 mins by Biomol Green reagent assay
Sequence (Q47758 whole entry): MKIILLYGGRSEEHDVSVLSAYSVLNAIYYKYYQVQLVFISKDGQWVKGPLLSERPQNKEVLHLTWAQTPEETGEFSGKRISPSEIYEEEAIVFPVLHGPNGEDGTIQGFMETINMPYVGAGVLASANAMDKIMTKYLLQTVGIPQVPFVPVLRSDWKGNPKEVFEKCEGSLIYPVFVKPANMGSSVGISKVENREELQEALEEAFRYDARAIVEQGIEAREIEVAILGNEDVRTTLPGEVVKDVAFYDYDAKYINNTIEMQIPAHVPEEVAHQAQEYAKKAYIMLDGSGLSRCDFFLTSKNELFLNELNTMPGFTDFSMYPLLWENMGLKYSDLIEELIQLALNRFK
measurementType: IC50 (nM)
One number for each entry, in nM.

These recorded examples may help you get a feel for the data.
Nc1ccc(C(=O)NNC(=S)Nc2ccc(Cl)c(Cl)c2)c(O)c1: 990
CCCCCNC(=S)NNC(=O)c1ccccc1O: 930
N#Cc1ccc(NC(=S)NNC(=O)c2ccccc2O)cc1: 510
COc1ccccc1NC(=S)NNC(=O)c1ccccc1O: 550
O=C(NNC(=S)Nc1ccc(OCc2ccccc2)cc1)c1ccccc1O: 990
O=C(NNC(=S)Nc1cccc(I)c1)c1ccccc1O: 730

Please give IC50 for each item listed below.
1. O=C(NNC(=S)Nc1ccc(F)cc1)c1ccccc1O
2. O=C(NNC(=S)Nc1cccc(Cl)c1)c1ccccc1O

OUT:
[840, 630]

Please give IC50 for each item listed below.
1. O=C(NNC(=S)Nc1ccccc1)c1ccccc1O
2. O=C(NNC(=S)Nc1ccc(Cl)cc1)c1ccccc1O
3. O=C(NNC(=S)Nc1ccc(Cl)c(Cl)c1)c1ccc(I)cc1O
4. O=C(NNC(=S)Nc1ccccc1F)c1ccccc1O

OUT:
1: 800; 2: 830; 3: 930; 4: 970

IN: Returns the measured IC50 for the input compound. Input: O=C(NNC(=S)Nc1ccccc1Cl)c1ccccc1O
OUT: 790

Where these numbers come from: ChEMBL document CHEMBL4382202
